target: Adrenergic receptor beta; ADRB1 & ADRB3 (Homo sapiens) (UniProt P08588+P13945); assay: Binding selectivity ratio for beta 3 over beta 1 AR (S beta3/beta1); format: protein assay
Sequence (P08588 whole entry, looked up): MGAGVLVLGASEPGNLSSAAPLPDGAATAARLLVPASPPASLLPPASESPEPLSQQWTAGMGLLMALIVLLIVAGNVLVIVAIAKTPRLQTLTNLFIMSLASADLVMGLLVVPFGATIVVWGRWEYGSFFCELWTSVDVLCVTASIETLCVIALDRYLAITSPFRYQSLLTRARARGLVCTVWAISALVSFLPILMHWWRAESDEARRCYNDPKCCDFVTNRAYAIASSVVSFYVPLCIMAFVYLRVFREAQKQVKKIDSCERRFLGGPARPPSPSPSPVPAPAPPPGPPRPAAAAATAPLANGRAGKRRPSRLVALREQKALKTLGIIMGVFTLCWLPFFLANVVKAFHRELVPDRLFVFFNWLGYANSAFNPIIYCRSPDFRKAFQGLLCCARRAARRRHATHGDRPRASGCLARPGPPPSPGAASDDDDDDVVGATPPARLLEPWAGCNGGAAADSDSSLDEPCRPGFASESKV
Sequence (P13945 whole entry, looked up): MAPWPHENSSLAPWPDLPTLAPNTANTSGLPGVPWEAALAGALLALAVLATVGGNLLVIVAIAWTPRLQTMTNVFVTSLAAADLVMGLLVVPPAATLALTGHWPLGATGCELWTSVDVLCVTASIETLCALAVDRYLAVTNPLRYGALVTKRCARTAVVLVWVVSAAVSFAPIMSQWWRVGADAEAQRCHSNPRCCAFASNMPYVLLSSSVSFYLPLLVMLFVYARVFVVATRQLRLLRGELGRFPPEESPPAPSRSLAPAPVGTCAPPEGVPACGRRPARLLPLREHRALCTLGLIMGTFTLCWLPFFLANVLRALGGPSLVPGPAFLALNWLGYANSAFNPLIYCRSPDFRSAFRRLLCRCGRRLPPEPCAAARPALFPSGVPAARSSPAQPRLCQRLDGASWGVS
Metric: Selectivity

Input line: Which measured Selectivity value corresponds to C[C@H](Cc1ccc(OCS(=O)(=O)O)cc1)NC[C@H](O)c1cccc(Cl)c1 ?
Output line: 9.4

Input line: Lookup C[C@H](Cc1ccc(OCP(=O)(O)O)cc1)NC[C@H](O)c1cccc(Cl)c1
Output line: > 1.8

Input line: Lookup COC(=O)COc1ccc(C[C@@H](C)NC[C@H](O)c2cccc(Cl)c2)cc1
Output line: 0.15

Input line: Lookup C[C@H](Cc1ccc(OCC(N)=O)cc1)NC[C@H](O)c1cccc(Cl)c1
Output line: 0.16

Input line: Lookup C[C@H](Cc1ccc(OCP(C)(=O)O)cc1)NC[C@H](O)c1cccc(Cl)c1
Output line: 7

Input line: Lookup C[C@H](Cc1ccc(OCC(=O)NO)cc1)NC[C@H](O)c1cccc(Cl)c1
Output line: 0.16

Input line: Lookup C[C@H](Cc1ccc(OCCO)cc1)NC[C@H](O)c1cccc(Cl)c1
Output line: 0.58

Input line: Lookup CC(C)OP(=O)(O)COc1ccc(C[C@@H](C)NC[C@H](O)c2cccc(Cl)c2)cc1
Output line: 7.4

Input line: Lookup C[C@H](Cc1ccc(OC(C(=O)O)C(=O)O)cc1)NC[C@H](O)c1cccc(Cl)c1
Output line: 22

---

Dear all, this message contains Ki results, target or system Beta-3 adrenergic receptor (Homo sapiens, UniProt P13945).
Dear colleague, please return just the value in µM, with no unit written.

Input line: Which measured Ki value corresponds to C[C@H](Cc1ccc(OCP(C)(=O)O)cc1)NC[C@H](O)c1cccc(Cl)c1 ?
Output line: 19.9

Input line: Lookup C[C@H](Cc1ccc(OCC(N)=O)cc1)NC[C@H](O)c1cccc(Cl)c1
Output line: 3.7

Input line: Lookup C[C@H](Cc1ccc(OC(C(=O)O)C(=O)O)cc1)NC[C@H](O)c1cccc(Cl)c1
Output line: 11.1

Input line: Lookup COC(=O)COc1ccc(C[C@@H](C)NC[C@H](O)c2cccc(Cl)c2)cc1
Output line: 1.15

Input line: Lookup C[C@H](Cc1ccc(OCC(=O)NO)cc1)NC[C@H](O)c1cccc(Cl)c1
Output line: 1.96

Input line: Lookup C[C@H](Cc1ccc(OCP(=O)(O)O)cc1)NC[C@H](O)c1cccc(Cl)c1
Output line: 55.3

Input line: Lookup C[C@H](Cc1ccc(OCS(=O)(=O)O)cc1)NC[C@H](O)c1cccc(Cl)c1
Output line: 0.806

Input line: Lookup CC(C)OP(=O)(O)COc1ccc(C[C@@H](C)NC[C@H](O)c2cccc(Cl)c2)cc1
Output line: 18.8

Input line: Lookup C[C@H](Cc1ccc(OCCO)cc1)NC[C@H](O)c1cccc(Cl)c1
Output line: 2.14

---

Dear all, this message contains pKi results, target or system Beta-1 adrenergic receptor (Homo sapiens, UniProt P08588).
Recall that pKi is obtained by taking minus log10 of the concentration measured in molar.

Input line: Which measured pKi value corresponds to COC(=O)COc1ccc(C[C@@H](C)NC[C@H](O)c2cccc(Cl)c2)cc1 ?
Output line: 6.77

Input line: Lookup C[C@H](Cc1ccc(OC(C(=O)O)C(=O)O)cc1)NC[C@H](O)c1cccc(Cl)c1
Output line: 3.61

Input line: Lookup C[C@H](Cc1ccc(OCCO)cc1)NC[C@H](O)c1cccc(Cl)c1
Output line: 5.90

Input line: Lookup C[C@H](Cc1ccc(OCS(=O)(=O)O)cc1)NC[C@H](O)c1cccc(Cl)c1
Output line: 5.12

Input line: Lookup C[C@H](Cc1ccc(OCC(N)=O)cc1)NC[C@H](O)c1cccc(Cl)c1
Output line: 6.23

Input line: Lookup CC(C)OP(=O)(O)COc1ccc(C[C@@H](C)NC[C@H](O)c2cccc(Cl)c2)cc1
Output line: 3.86

Input line: Lookup C[C@H](Cc1ccc(OCC(=O)NO)cc1)NC[C@H](O)c1cccc(Cl)c1
Output line: 6.51

Input line: Lookup C[C@H](Cc1ccc(OCP(C)(=O)O)cc1)NC[C@H](O)c1cccc(Cl)c1
Output line: 3.85
